- Test system: OVCAR-3
- ASSAY_REMARKS: OVCAR3 CTG assay
- Assay type: cell-based
- CONDITION_SUMMARY: Homo sapiens, OVCAR-3, 144 h; CellTiter-Glo, 6 days incubation
pIC50: −log10 of the molar value.
# pIC50 per entry

Problem: Consider the compound shown here: CCS(=O)(=O)Nc1cc2c(cn1)C(=O)Nc1cccc(n1)NC[C@@H](C)CCCC1(C(F)(F)F)CCN2CC1 What is its recorded pIC50?
Result: > 8.00

Problem: Consider the compound shown here: Cc1cc2nc(n1)N(C)C[C@@H](C)COCC1(C)CCN(CC1)c1cc(NS(=O)(=O)CCO)ccc1C(=O)N2 What is its recorded pIC50?
Result: 5.00 to 6.00

Problem: Consider the compound shown here: O=C1Nc2cccc(n2)NCCCCCC2(C(F)(F)F)CCN(CC2)c2cc(NS(=O)(=O)CCO)ccc21 What is its recorded pIC50?
Result: > 8.00

Problem: Consider the compound shown here: O=C1Nc2ccc(=O)n(n2)CCCCOCC2(C(F)(F)F)CCN(CC2)c2cc(NS(=O)(=O)CCO)ccc21 What is its recorded pIC50?
Result: 7.00 to 8.00

Problem: Consider the compound shown here: C[C@@H]1C/C=C/C2(C(F)(F)F)CCN(CC2)c2cc(NS(=O)(=O)CCO)ccc2C(=O)Nc2cccc(n2)NC1 What is its recorded pIC50?
Result: 7.00 to 8.00

* * *

# IC50 per entry
- ASSAYED_SYSTEM: Kif18A (Homo sapiens, UniProt Q8NI77)
- Sequence (Q8NI77 1-898): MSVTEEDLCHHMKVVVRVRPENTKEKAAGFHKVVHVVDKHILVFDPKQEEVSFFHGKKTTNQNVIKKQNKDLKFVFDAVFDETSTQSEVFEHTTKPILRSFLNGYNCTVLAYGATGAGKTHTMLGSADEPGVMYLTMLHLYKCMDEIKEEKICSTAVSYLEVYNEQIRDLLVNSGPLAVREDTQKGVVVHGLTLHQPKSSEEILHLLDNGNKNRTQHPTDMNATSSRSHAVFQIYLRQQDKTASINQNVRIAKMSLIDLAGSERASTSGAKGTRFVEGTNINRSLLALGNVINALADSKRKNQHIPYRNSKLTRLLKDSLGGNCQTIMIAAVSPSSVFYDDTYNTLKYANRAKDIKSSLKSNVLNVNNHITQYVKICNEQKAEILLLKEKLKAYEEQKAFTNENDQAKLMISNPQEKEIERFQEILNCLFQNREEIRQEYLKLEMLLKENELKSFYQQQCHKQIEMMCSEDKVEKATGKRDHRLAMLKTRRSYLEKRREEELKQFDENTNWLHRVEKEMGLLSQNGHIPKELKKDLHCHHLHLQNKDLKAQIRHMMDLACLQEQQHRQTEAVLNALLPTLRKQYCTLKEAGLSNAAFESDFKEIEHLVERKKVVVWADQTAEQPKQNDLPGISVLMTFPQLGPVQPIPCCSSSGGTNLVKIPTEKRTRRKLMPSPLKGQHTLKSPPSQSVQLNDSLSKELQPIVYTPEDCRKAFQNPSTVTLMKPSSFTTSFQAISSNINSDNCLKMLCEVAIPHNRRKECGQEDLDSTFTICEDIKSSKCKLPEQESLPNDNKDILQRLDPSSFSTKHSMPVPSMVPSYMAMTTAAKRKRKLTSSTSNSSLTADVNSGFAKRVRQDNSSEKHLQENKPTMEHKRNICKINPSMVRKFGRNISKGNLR

Example compounds with recorded IC50:
C[C@@H]1CCCC2(C(F)F)CCN(CC2)c2cc(NS(=O)(=O)CCO)ccc2C(=O)Nc2cccc(n2)NC1
< 10 nM
O=C1Nc2cccc(n2)OCCCOCC2CCN(CC2)c2cc(NS(=O)(=O)CCO)ccc21
10 to 100 nM
COC1CNc2nc(C)cc(n2)NC(=O)c2ccc(NS(=O)(=O)CCO)cc2N2CCC(C)(CC2)COC1 (stereo not shown)
10 to 100 nM

Problem: Consider the compound shown here: Cc1cc2nc(n1)NC[C@@H](C)COCC1(C(F)(F)F)CCN(CC1)c1cc(NS(=O)(=O)CCO)ccc1C(=O)N2 What is its recorded IC50?
Result: 10 to 100 nM

Problem: Consider the compound shown here: CC12CCN(CC1)c1cc(NS(=O)(=O)CCO)ccc1C(=O)Nc1ccc(=O)n(n1)CCCCOC2 What is its recorded IC50?
Result: 10 to 100 nM

Problem: Consider the compound shown here: Cc1cc2nc(n1)N(C)CC(C)COCC1(C(F)(F)F)CCN(CC1)c1cc(NS(=O)(=O)CCO)ccc1C(=O)N2 (stereo not shown) What is its recorded IC50?
Result: 10 to 100 nM
